# System: ΔF508-CFTR (Homo sapiens, UniProt P13569, DEL508-508)
# Sequence (P13569 with tags, fused parts or gaps DEL508-508): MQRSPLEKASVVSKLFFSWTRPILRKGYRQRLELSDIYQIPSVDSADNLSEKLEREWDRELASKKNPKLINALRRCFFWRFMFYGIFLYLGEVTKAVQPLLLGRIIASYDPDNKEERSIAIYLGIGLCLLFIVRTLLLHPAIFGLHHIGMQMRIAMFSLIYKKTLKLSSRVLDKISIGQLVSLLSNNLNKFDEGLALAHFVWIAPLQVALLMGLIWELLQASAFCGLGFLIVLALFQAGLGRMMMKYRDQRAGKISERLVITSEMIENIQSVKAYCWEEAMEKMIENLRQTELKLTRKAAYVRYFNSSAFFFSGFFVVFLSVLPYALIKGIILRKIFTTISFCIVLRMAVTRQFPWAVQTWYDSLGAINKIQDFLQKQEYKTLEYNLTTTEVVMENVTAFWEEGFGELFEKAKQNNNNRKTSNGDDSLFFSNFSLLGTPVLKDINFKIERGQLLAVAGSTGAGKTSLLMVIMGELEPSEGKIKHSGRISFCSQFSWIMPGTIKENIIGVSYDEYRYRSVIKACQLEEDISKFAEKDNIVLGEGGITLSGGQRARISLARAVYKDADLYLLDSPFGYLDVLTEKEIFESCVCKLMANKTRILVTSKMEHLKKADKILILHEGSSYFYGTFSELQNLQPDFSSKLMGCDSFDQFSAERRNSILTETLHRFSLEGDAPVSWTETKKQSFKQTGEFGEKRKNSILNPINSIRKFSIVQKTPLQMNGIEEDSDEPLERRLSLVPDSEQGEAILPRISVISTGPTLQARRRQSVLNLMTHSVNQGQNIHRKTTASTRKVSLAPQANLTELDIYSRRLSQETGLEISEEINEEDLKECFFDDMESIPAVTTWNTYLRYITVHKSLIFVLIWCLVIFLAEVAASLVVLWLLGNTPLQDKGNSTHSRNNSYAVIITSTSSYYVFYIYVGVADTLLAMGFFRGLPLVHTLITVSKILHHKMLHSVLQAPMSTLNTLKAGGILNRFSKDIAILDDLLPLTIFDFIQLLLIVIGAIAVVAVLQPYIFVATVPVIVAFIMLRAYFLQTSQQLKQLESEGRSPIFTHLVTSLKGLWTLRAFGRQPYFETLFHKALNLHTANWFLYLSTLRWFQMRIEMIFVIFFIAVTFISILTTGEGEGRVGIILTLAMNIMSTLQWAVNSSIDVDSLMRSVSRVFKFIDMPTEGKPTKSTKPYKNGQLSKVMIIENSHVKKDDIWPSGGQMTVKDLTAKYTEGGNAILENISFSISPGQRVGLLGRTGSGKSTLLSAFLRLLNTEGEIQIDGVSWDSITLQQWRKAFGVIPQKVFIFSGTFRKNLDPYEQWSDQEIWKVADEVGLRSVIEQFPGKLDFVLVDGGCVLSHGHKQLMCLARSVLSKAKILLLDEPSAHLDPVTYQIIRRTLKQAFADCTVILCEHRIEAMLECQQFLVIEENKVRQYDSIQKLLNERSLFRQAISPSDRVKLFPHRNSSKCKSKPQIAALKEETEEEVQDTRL
# Assay info: Membrane potential optical (FRET/VIPR) assay, identification of potentiator compounds
# Experimental context: Table 3; assay not given
Measured endpoint: EC50

| Molecule | Experimental result |
| --- | --- |
| CCCc1ccc(NC(=O)c2c[nH]c3ccccc3c2=O)cc1NC(=O)OC | < 10 µM |
| CC(C)c1cccc(-c2ccccc2NC(=O)c2c[nH]c3ccccc3c2=O)c1 | < 10 µM |
| CC(C)(C)c1cc2cc[nH]c2cc1NC(=O)c1c[nH]c2ccc(S(=O)(=O)N3CCCC3)cc2c1=O | < 10 µM |
| CCCCc1ccccc1NC(=O)c1c[nH]c2ccccc2c1=O | < 10 µM |
| O=C(Nc1cc2[nH]ccc2cc1F)c1c[nH]c2cccc(O)c2c1=O | < 10 µM |
| Cc1cccc2[nH]cc(C(=O)Nc3ccc(N4CCC[C@@H]4C)nc3C(F)(F)F)c(=O)c12 | < 10 µM |
| CC1=NN(c2cccc(NC(=O)c3c[nH]c4ccccc4c3=O)c2)C(=O)C1 | 25 to 60 µM |
| CCCc1ccccc1NC(=O)c1c[nH]c2ccccc2c1=O | < 10 µM |
| O=C(Nc1ccccc1)c1c[nH]c2cc(C(F)(F)F)ccc2c1=O | < 10 µM |
| O=C(Nc1cc2[nH]ccc2cc1-c1ccccc1)c1c[nH]c2ccccc2c1=O | < 10 µM |
| Cc1ccc2c(=O)c(C(=O)Nc3cc(O)c(C(C)(C)C)cc3C(C)(C)C)c[nH]c2c1 | < 10 µM |
| O=C(Nc1ccc2c(c1)OCO2)c1c[nH]c2ccccc2c1=O | 25 to 60 µM |
| CC(C)(C)c1cc(C(F)(F)F)c(NC(=O)c2c[nH]c3cccc(O)c3c2=O)cc1O | < 10 µM |
| CC(C)(C)c1cc2cc[nH]c2cc1NC(=O)c1c[nH]c2cccc(O)c2c1=O | < 10 µM |
| CC(C)(C)c1c[nH]c2cc(NC(=O)c3c[nH]c4ccccc4c3=O)ccc12 | < 10 µM |
| CC(C)c1ccc(NC(=O)c2c[nH]c3ccccc3c2=O)cc1N | < 10 µM |
| O=C(Nc1ccc(C2CCCCC2)c(O)c1)c1c[nH]c2ccc(F)cc2c1=O | < 10 µM |
| CC(C)(C)c1ccc(NC(=O)c2c[nH]c3cccc(O)c3c2=O)cc1F | < 10 µM |
| O=C(Nc1ccc2c(c1)OC(F)(F)O2)c1c[nH]c2ccccc2c1=O | 10 to 25 µM |
| O=C(Nc1cc(Cl)cc(NS(=O)(=O)CCN2CCOCC2)c1)c1c[nH]c2ccccc2c1=O | 10 to 25 µM |
| O=C(Nc1ccccc1-c1cc(Cl)cc(Cl)c1)c1c[nH]c2ccccc2c1=O | < 10 µM |
| CCOC(=O)NC1CCCc2ccc(NC(=O)c3c[nH]c4ccccc4c3=O)cc21 (stereo not shown) | 10 to 25 µM |
| CN1CCC(C)(C)c2ccc(NC(=O)c3c[nH]c4ccccc4c3=O)cc21 | < 10 µM |
| O=C(Nc1ccc2c(c1)CCO2)c1c[nH]c2ccccc2c1=O | 25 to 60 µM |
| COc1ccc(NC(=O)c2c[nH]c3ccccc3c2=O)cc1 | < 10 µM |
| N#Cc1c(Cl)cccc1NC(=O)c1c[nH]c2ccccc2c1=O | 10 to 25 µM |
| CC1(c2cc(F)c(NC(=O)c3c[nH]c4ccc(F)cc4c3=O)cc2O)CCCCC1 | < 10 µM |
| CN(C)c1ccc2[nH]cc(C(=O)Nc3cc(O)c(C(C)(C)C)cc3C(C)(C)C)c(=O)c2c1 | < 10 µM |
| CCOC(=O)c1c(NC(=O)c2c[nH]c3ccccc3c2=O)ccc2cc[nH]c12 | < 10 µM |
| Cc1cc(C2C3CC4CC(C3)CC2C4)c(O)cc1NC(=O)c1c[nH]c2ccccc2c1=O (stereo not shown) | < 10 µM |
| COC(=O)c1c(NC(=O)c2c[nH]c3ccccc3c2=O)csc1C(C)(C)C | < 10 µM |
| CCCCOC(=O)NCC(C)(C)c1ccc(NC(=O)c2c[nH]c3ccccc3c2=O)cc1 | < 10 µM |
| CC(C)(C)c1ccc(NC(=O)c2c[nH]c3ccccc3c2=O)cc1C#N | < 10 µM |
| O=C(Nc1ccccc1-c1ccc(F)c(Cl)c1)c1c[nH]c2ccccc2c1=O | < 10 µM |
